intrinsic clearance, rat liver microsomes values for the compounds below.

Below: 2 compounds and their reported intrinsic clearance, rat liver microsomes.
| Compound structure | Reported result |
| --- | --- |
| CN(Cc1cccc(C#N)c1)Cc1cnn(C)c1 | ≤ 10.7 mL/min/kg |
| O=C1NC2(CCC2)C(=O)N1Cc1ccon1 | ≤ 10.7 mL/min/kg |

// next item, intrinsic clearance, rat liver microsomes requested
What value of intrinsic clearance, rat liver microsomes has been recorded for this entry: `CCCn1nccc1NC(=O)c1c(C)noc1C` ≤ 10.7 mL/min/kg

* * *

log10 intrinsic clearance, human liver microsomes values for the compounds below.
The base-10 logarithm of intrinsic clearance, human liver microsomes, taken with intrinsic clearance, human liver microsomes in mL/min/kg, is what appears here.

| Compound | Reported result |
| --- | --- |
| C[n+]1cc2c3c(ccc2c2ccc4cc5c(cc4c21)OCO5)OCO3 | 0.92 |
| CCc1ccc2nc(C)cc(C(=O)N3CC(c4cccnc4)C3)c2c1 | 2.16 |
| COc1nc(C)nc(N(C)Cc2nccs2)c1C | 2.12 |
| CCCCN1CCN(C(=O)c2cccc(-c3ccc(CO)cc3)c2)CC1 | 1.42 |
| CN(C)c1cccc(C2CCN(c3ncccn3)CC2)n1 | 1.97 |

What value of log10 intrinsic clearance, human liver microsomes has been recorded for this entry: `NC(=O)C1(Cc2ccc(-c3cccnc3)cc2)CCN(Cc2cccc(Cl)c2)CC1` 2.26

What value of log10 intrinsic clearance, human liver microsomes has been recorded for this entry: CC1(C)CC(=O)C2=C(C1)NC(=O)CC2c1ccc(Br)cc1 (stereo unspecified) 1.78
